molecular target: CDK2/CycE (Homo sapiens, UniProt P24941); construct: GST; purchased ProQinase GmbH (Freiburg, Germany); host or cells: insect cells (Sf9); assay: CDK2/CycE kinase assay (TR-FRET); type: biochemical; settings: Method 2, 10 μM ATP
parameter: IC50 (nM)

> print(dat)
                               sample.smiles                         system.under.test  parameter  result.units  recorded.measurement
 1  COc1cc(F)ccc1-c1ncnc(Nc2cc(Cl)cc(CS(C)(=O)=O)c2)n1  CDK2/CycE (Homo sapiens, UniProt P24941)       IC50            nM                   190
 2  CS(=O)(=O)Cc1cccc(Nc2ncnc(-c3cc(F)ccc3OCC3CCOCC3)n2)c1  CDK2/CycE (Homo sapiens, UniProt P24941)       IC50            nM                  8800
 3  CS(=O)(=O)Cc1cccc(Nc2ncnc(-c3ccc(F)cc3OCc3ccc(C#N)cc3)n2)c1  CDK2/CycE (Homo sapiens, UniProt P24941)       IC50            nM                   680
 4  CC(C)Oc1cc(F)ccc1-c1ncnc(Nc2cccc(CS(C)(=O)=O)c2)n1  CDK2/CycE (Homo sapiens, UniProt P24941)       IC50            nM                  1400
 5  COc1cc(F)ccc1-c1ncnc(Nc2cccc(CS(=O)(=O)C(C)C)c2)n1  CDK2/CycE (Homo sapiens, UniProt P24941)       IC50            nM                   680
 6  CCOc1cc(F)ccc1-c1ncnc(Nc2cccc(CS(C)(=O)=O)c2)n1  CDK2/CycE (Homo sapiens, UniProt P24941)       IC50            nM                   590
 7  COc1cc(F)ccc1-c1ncnc(Nc2cccc(CS(=O)(=O)C(C)(C)C)c2)n1  CDK2/CycE (Homo sapiens, UniProt P24941)       IC50            nM                  2000
 8  COc1cc(F)ccc1-c1ncnc(Nc2cccc(CS(=O)(=O)C3CCCCC3)c2)n1  CDK2/CycE (Homo sapiens, UniProt P24941)       IC50            nM                   560
 9  CS(=O)(=O)Cc1cccc(Nc2ncnc(-c3cccc4c3OCC4)n2)c1  CDK2/CycE (Homo sapiens, UniProt P24941)       IC50            nM                   710
10  CCCCCOc1cc(F)ccc1-c1ncnc(Nc2cccc(CS(C)(=O)=O)c2)n1  CDK2/CycE (Homo sapiens, UniProt P24941)       IC50            nM                   990
11  CS(=O)(=O)Cc1cccc(Nc2ncnc(-c3ccc(F)cc3OC3CCCC3)n2)c1  CDK2/CycE (Homo sapiens, UniProt P24941)       IC50            nM                  2300
12  CS(=O)(=O)Cc1cccc(Nc2ncnc(-c3ccc(F)cc3OCc3ccncc3)n2)c1  CDK2/CycE (Homo sapiens, UniProt P24941)       IC50            nM                   400
13  COc1ncccc1-c1ncnc(Nc2cccc(CS(C)(=O)=O)c2)n1  CDK2/CycE (Homo sapiens, UniProt P24941)       IC50            nM                  8200
14  CS(=O)(=O)Cc1cccc(Nc2ncnc(-c3ccc(F)cc3OCC3CCCCC3)n2)c1  CDK2/CycE (Homo sapiens, UniProt P24941)       IC50            nM                  2400
15  CS(=O)(=O)Cc1cccc(Nc2ncnc(-c3ccc(F)cc3OCc3ccccc3F)n2)c1  CDK2/CycE (Homo sapiens, UniProt P24941)       IC50            nM                  2200
16  CC(C)S(=O)(=O)Cc1cccc(Nc2ncnc(-c3cc(F)ccc3OCc3cccc(F)c3)n2)c1  CDK2/CycE (Homo sapiens, UniProt P24941)       IC50            nM                   320
17  CC(C)S(=O)(=O)Cc1cccc(Nc2ncnc(-c3ccccc3OCc3cccc(Cl)c3)n2)c1  CDK2/CycE (Homo sapiens, UniProt P24941)       IC50            nM                   800
